- Assay Method Text: Cell viability assay
- Assay type: cell-based
- Conditions: human, HFF cells (no virus)
Metric: CC50 at 168 h

Here's what some known entries look like.
| Compound | Reported |
| --- | --- |
| O=C(NCc1ccc(F)cc1F)c1cn(Cc2ccccc2)cc(O)c1=O | > 50 µM |
| CC1(C)OB(c2ccc(NC(=O)c3cn(Cc4ccc(F)cc4)cc(O)c3=O)cc2)OC1(C)C | > 50 µM |
| O=C(Nc1ccc(F)cc1)c1cn(Cc2ccc(F)cc2)cc(O)c1=O | 5.6 µM |
| O=C(NCc1cc(F)c(F)cc1F)c1cn(Cc2ccc(F)cc2)cc(O)c1=O | 5.7 µM |

Hi, could you look up CC50 at 168 h for each item in my list?
1. O=C(NCc1ccccc1)c1cn(Cc2ccc(F)cc2)cc(O)c1=O
2. O=C(NCc1ccc(Br)cc1F)c1cn(Cc2ccc(F)cc2)cc(O)c1=O
3. O=C(NCc1ccc(F)cc1F)c1cn(C2CC2)cc(O)c1=O
4. O=C(NCc1ccc(Cl)cc1F)c1cn(Cc2ccc(F)cc2)cc(O)c1=O
5. O=C(NCc1ccc(F)cc1F)c1c[nH]cc(O)c1=O
6. N#Cc1ccc(CNC(=O)c2cn(Cc3ccc(F)cc3)cc(O)c2=O)c(F)c1
7. Nc1nc(O)c2ncn(COC(CO)CO)c2n1 [Compound 1, ganciclovir, reference compound]
8. CCOC(=O)c1cn(Cc2ccc(F)cc2)ccc1=O

1: 7.1 µM; 2: > 25 µM; 3: > 25 µM; 4: 2.4 µM; 5: > 50 µM; 6: > 50 µM; 7: > 50 µM; 8: > 50 µM

Give one value of CC50 at 168 h per listed compound.
1. Cc1cc(CNC(=O)c2cn(Cc3ccc(F)cc3)cc(O)c2=O)ccc1F
2. O=C(NCc1ccc(F)c(Cl)c1)c1cn(Cc2ccc(F)cc2)cc(O)c1=O
3. O=C(NCc1ccc(C(F)(F)F)cc1F)c1cn(Cc2ccc(F)cc2)cc(O)c1=O
4. O=C(NCCc1ccc(F)cc1F)c1cn(Cc2ccc(F)cc2)cc(O)c1=O
5. CC(NC(=O)c1cn(Cc2ccc(F)cc2)cc(O)c1=O)c1ccc(F)cc1F (stereo not drawn)

10 µM
3.9 µM
> 25 µM
> 50 µM
> 50 µM

Form: compound = O=C(NCc1cccc(F)c1)c1cn(Cc2ccc(F)cc2)cc(O)c1=O ; CC50 at 168 h = 3.9 µM

----------
Task for the reader: assign each of the following compounds its reported CC50 at 168 h.
- Assay Method Text: Cell viability assay
- Format: cell-based
- Conditions: human, HFF cells (no virus)
Numbers only, in µM.

Use these answered entries as a reference point.
| Compound | Reported |
| --- | --- |
| O=C(NCc1ccccc1F)c1cn(Cc2ccc(F)cc2)cc(O)c1=O [Compound 8e] | 5.8 |
| O=C(NCc1ccc(F)cc1)c1cn(Cc2ccc(F)cc2)cc(O)c1=O [Compound 8b] | 6.4 |

Next:
The reported value for CN(Cc1ccc(F)cc1F)C(=O)c1cn(Cc2ccc(F)cc2)cc(O)c1=O [Compound 11] in terms of CC50 at 168 h is 12

----------
Would you kindly list half-life at 1 μmol/L for each of these molecules?
- Assay Method Text: Plasma stability assay, mouse plasma
- Type: in vitro ADME, mouse (CD-1)
- Conditions: CD-1, mouse, pH 7.4

| Molecule | half-life at 1 μmol/L |
| --- | --- |
| O=C(NCCc1ccc(F)cc1F)c1cn(Cc2ccc(F)cc2)cc(O)c1=O [Compound 12] | > 24 h |

Turning now to a further molecule:
Record summary for O=C(NCc1ccc(F)cc1F)c1cn(Cc2ccccc2)cc(O)c1=O [Compound 13] : reported half-life at 1 μmol/L = > 24 h

----------
- Assay Method Text: Parallel artificial membrane permeability assay
- Type: in vitro ADME
- Conditions: PAMPA
Please respond with reported Papp at 5 h, 2 μmol/L for every item in the list.
Give bare numbers, in ×10⁻⁶ cm/s.

| Structure Notation | Metric | Quantity Unit | Reported |
| --- | --- | --- | --- |
| O=C(NCc1ccc(F)cc1F)c1cn(Cc2ccccc2)cc(O)c1=O | Papp at 5 h, 2 μmol/L | ×10⁻⁶ cm/s | 9.1 |

Would you kindly look at the next entry?
Please fill in: Papp at 5 h, 2 μmol/L reported for O=C(NCCc1ccc(F)cc1F)c1cn(Cc2ccc(F)cc2)cc(O)c1=O = 4.5

----------
Record form. Attribute: half-life at 1 μmol/L. Fill in for each entry.
- Assay Method Text: Microsomal stability assay, mouse liver microsomes
- Assay type: in vitro ADME
- Conditions: CD-1, mouse, pH 7.4
Give bare numbers, in min.

| Structure Notation | half-life at 1 μmol/L, min |
| --- | --- |
| O=C(NCc1ccc(F)cc1F)c1cn(Cc2ccccc2)cc(O)c1=O | 53.7 |

Query compound follows.
Record O=C(NCCc1ccc(F)cc1F)c1cn(Cc2ccc(F)cc2)cc(O)c1=O . Reported half-life at 1 μmol/L: 26
